The reported measurements were obtained from ChEMBL document CHEMBL1201862.

Test system: SF-295
Assay: NCI tumour cell line growth inhibition, 48 h
Active and inactive are the calls of the source. Cut-off read from the data, not from the text of the source: active = GI50 up to about 1.1 µM and inactive = higher.
quantity.name: GI50

>>> print(df.to_string())
                                smiles_text  experimental_system  quantity_name       value_reported
0  Cc1nc2ccccc2n1Cc1ccc(NC(=S)Nc2ccccc2)cc1               SF-295           GI50   34.3 µM (inactive)
1  CC(=O)OCCOCNC(=S)N/N=C(\C)c1cnc2ccccc2n1               SF-295           GI50   57.9 µM (inactive)
2  Cc1cc(S(=O)(=O)Nc2nc(N)nc(N(C)C)n2)c(SCC(=O)O)cc1Cl               SF-295           GI50   > 10 µM (inactive)
3     Cn1cc2c(n1)c(N/N=C/c1ccccc1)nn1nnnc21               SF-295           GI50  > 100 µM (inactive)

----------
Some compounds, each annotated with its measured GI50.
Tested on: LXFL 529
Assay: NCI tumour cell line growth inhibition, 48 h
Activity calls are given as the source filed them. No stated cut-off is given here; in the data, active = GI50 up to about 1.1 µM and inactive = higher.
quantity.name: GI50

In [3]: df
Out[3]:
                                   compound  quantity_name       value_reported
0  CC(=O)Nc1ccc(C(=O)NN2C(=O)C(Cl)C2c2cc(Br)ccc2O)cc1 (centres undefined)           GI50   14.4 µM (inactive)
1    Cc1ccc2ccc3ccc(C)nc3c2n1 [NEOCUPROINE]           GI50    0.679 µM (active)
2  CC(=O)C(CN(C)C)C(c1ccccc1)c1c(O)c2ccccc2oc1=O (centres undefined)           GI50  > 100 µM (inactive)
3  O=C(Nc1ccc(Cl)c(C(F)(F)F)c1)C(=O)C(C(=O)/C=C/c1ccccc1)C1OC(=O)c2ccccc21 (centres undefined)           GI50   57.4 µM (inactive)

----------
Test system: NCI-H226
Assay: NCI tumour cell line growth inhibition, 48 h
The source made the active and inactive calls. Rule as the data show it: active = GI50 up to about 1.1 µM and inactive = higher.
quantity.name: GI50

>>> print(df.to_string())
                                   molecule  experimental_system  quantity_name        value_reported
0  CC12CCC(C(=O)N3CC=CCC3)(OC1=O)C2(C)C (configuration not stated)             NCI-H226           GI50   > 100 µM (inactive)
1  CC#Cc1cc2c(cc1O)CC[C@@H]1[C@@H]2CC[C@]2(C)[C@@H](O)CC[C@@H]12             NCI-H226           GI50     2.8 µM (inactive)
2   Nc1nc(O)c2ncn([C@H]3CC[C@@H](CO)O3)c2n1             NCI-H226           GI50   > 100 µM (inactive)
3  COc1ccccc1/N=N/C(=N/NC(=O)c1ccc(C)cc1)c1ccc(N(CCC#N)CCC#N)cc1OC             NCI-H226           GI50      80 µM (inactive)
4  C=C1CCC2CC1[C@@H](C(=O)c1c[nH]c3ccccc13)NC2(C)C (some centres not stated)             NCI-H226           GI50  > 37.5 µM (inactive)
5  CC(=O)OC(Cc1c(O)c2c(C)cccc2oc1=O)C(C)(C)O (configuration not stated)             NCI-H226           GI50   > 100 µM (inactive)
6              CCC(CC)(CO)CNc1cc(Cl)nc(N)n1             NCI-H226           GI50    77.1 µM (inactive)
